- Test system: Escherichia coli TOP10;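 also: peptides expressed intracellularly from a pBAD plasmid library in pooled LB shake-flask culture, induced with 0.3% L-arabinose, DNA abundance read by NGS, three biological replicates, DESeq2 with apeglm shrinkage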
- measurement_protocol: shrunken log2 fold change of peptide-encoding DNA abundance (4.5 h post-induction vs induction); higher = less antimicrobial activity (less host growth inhibition)
- assay_setup: time post-induction: 4.5 h; library: site-saturation at positions 5, 18, 19, 20
value_kind: shrunken log2 fold change
One number for each entry.

Answered cases to consult:
construct_sequence: RRIRFRPPRLPRPRPRPNDFPRP
shrunken log2 fold change: -0.228

construct_sequence: RRIRDRPPRLPRPRPRPDKAPRP
shrunken log2 fold change: -0.00804

construct_sequence: RRIRMRPPRLPRPRPRPQQCPRP
shrunken log2 fold change: 0.143

construct_sequence: RRIRIRPPRLPRPRPRPSSSPRP
shrunken log2 fold change: 0.148

construct_sequence: RRIRQRPPRLPRPRPRPFKRPRP
shrunken log2 fold change: 0.0391

construct_sequence: RRIRSRPPRLPRPRPRPGSAPRP
shrunken log2 fold change: 0.231

// for each sequence in input: emit shrunken log2 fold change
1. RRIRMRPPRLPRPRPRPFTQPRP
2. RRIRQRPPRLPRPRPRPMFAPRP

Output:
1. 0.215
2. 0.0682

// for each sequence in input: emit shrunken log2 fold change
1. RRIRSRPPRLPRPRPRPEYWPRP
2. RRIRRRPPRLPRPRPRPAVIPRP
3. RRIRSRPPRLPRPRPRPWQDPRP
4. RRIRNRPPRLPRPRPRPSYAPRP
5. RRIRPRPPRLPRPRPRPNEHPRP
6. RRIRVRPPRLPRPRPRPYNCPRP
7. RRIRTRPPRLPRPRPRPRCNPRP

Output:
[0.191, 0.00992, -0.136, -0.387, -0.263, -0.432, -0.36]
